test-conditions: in acetone, 323.1 K
observation-type: solubility (mole fraction)
Enter a number only.

input: Query: solubility (mole fraction); subject: CN(C)CCC=C1c2ccccc2CCc2ccccc21.Cl
output: 0.00565

###

test-conditions: in n-propanol, 293.16 K
observation-type: solubility (mole fraction)

input: What value of measured solubility (mole fraction) is listed for CN(C)CCC=C1c2ccccc2CCc2ccccc21.Cl ?
output: 0.0442

###

test-conditions: in acetone, 293.2 K
observation-type: solubility (mole fraction)
Could you respond with only the numeric value?

input: If you can, please state the reported solubility (mole fraction) value of CN(C)CCC=C1c2ccccc2CCc2ccccc21.Cl .
output: 0.00282

###

test-conditions: in cyclohexanone, 298.43 K
observation-type: solubility (mole fraction)
// keep it numeric: no unit symbol after the value

input: State the recorded solubility (mole fraction) for this entry: CN(C)CCC=C1c2ccccc2CCc2ccccc21.Cl
output: 0.00743

###

test-conditions: in acetonitrile, 293.2 K
observation-type: solubility (mole fraction)
Form rule: numeric answer, no unit written next to it.

input: Endpoint output: solubility (mole fraction) of CN(C)CCC=C1c2ccccc2CCc2ccccc21.Cl . Value?
output: 0.0102

###

test-conditions: in isopentanol, 308.17 K
observation-type: solubility (mole fraction)
Reply with the value as a number alone.

input: GET /values?readout=solubility (mole fraction)&item= CN(C)CCC=C1c2ccccc2CCc2ccccc21.Cl
output: 0.0416

###

test-conditions: in n-butanol, 293.13 K
observation-type: solubility (mole fraction)
// no unit string in output, number only

input: What solubility (mole fraction) value was documented for this molecule, CN(C)CCC=C1c2ccccc2CCc2ccccc21.Cl ?
output: 0.0333

###

test-conditions: in isopentanol, 293.17 K
observation-type: solubility (mole fraction)
Keep the answer to the number alone.

input: Entry CN(C)CCC=C1c2ccccc2CCc2ccccc21.Cl has what solubility (mole fraction)?
output: 0.0202

###

test-conditions: in acetone, 298.07 K
observation-type: solubility (mole fraction)
API note: the answer field is a bare number with no unit suffix.

input: Could you tell me which solubility (mole fraction) is on file for CN(C)CCC=C1c2ccccc2CCc2ccccc21.Cl ?
output: 0.00316

###

test-conditions: in acetonitrile, 323.17 K
observation-type: solubility (mole fraction)
// no unit, no text: just the number

input: Requested read-out: solubility (mole fraction). Entry: CN(C)CCC=C1c2ccccc2CCc2ccccc21.Cl
output: 0.0249

###

test-conditions: in THF, 317.96 K
observation-type: solubility (mole fraction)
Lab note: record the figure alone, no unit after it.

input: State the recorded solubility (mole fraction) for this entry: CN(C)CCC=C1c2ccccc2CCc2ccccc21.Cl
output: 0.00174

###

test-conditions: in sec-butanol, 283.2 K
observation-type: solubility (mole fraction)
Form rule: numeric answer, no unit written next to it.

input: Need solubility (mole fraction) of CN(C)CCC=C1c2ccccc2CCc2ccccc21.Cl , thanks.
output: 0.00725

###

test-conditions: in isopentanol, 323.17 K
observation-type: solubility (mole fraction)
Please reply with the number alone, leaving off any unit.

input: Could you share which solubility (mole fraction) value was measured for CN(C)CCC=C1c2ccccc2CCc2ccccc21.Cl ?
output: 0.0827

###

test-conditions: in 2-butanone, 318.67 K
observation-type: solubility (mole fraction)

input: // returns reported solubility (mole fraction) for input CN(C)CCC=C1c2ccccc2CCc2ccccc21.Cl
output: 0.00518

###

test-conditions: in n-propanol, 318.07 K
observation-type: solubility (mole fraction)
Please reply with the number alone, leaving off any unit.

input: Report solubility (mole fraction) for CN(C)CCC=C1c2ccccc2CCc2ccccc21.Cl please.
output: 0.116

###

test-conditions: in cyclohexanone, 293.11 K
observation-type: solubility (mole fraction)

input: solubility (mole fraction) for CN(C)CCC=C1c2ccccc2CCc2ccccc21.Cl ?
output: 0.0066

###

test-conditions: in n-pentanol, 313.16 K
observation-type: solubility (mole fraction)
Please give the numeric answer without any surrounding text.

input: State the recorded solubility (mole fraction) for this entry: CN(C)CCC=C1c2ccccc2CCc2ccccc21.Cl
output: 0.1

###

test-conditions: in n-butanol, 303.4 K
observation-type: solubility (mole fraction)
// no unit, no text: just the number

input: Which solubility (mole fraction) reading was recorded for the compound CN(C)CCC=C1c2ccccc2CCc2ccccc21.Cl ?
output: 0.0537

###

test-conditions: in 2-butanone, 303.16 K
observation-type: solubility (mole fraction)
The answer should be a number; do not append a unit.

input: Requested read-out: solubility (mole fraction). Entry: CN(C)CCC=C1c2ccccc2CCc2ccccc21.Cl
output: 0.00375

###

test-conditions: in DMF, 318.16 K
observation-type: solubility (mole fraction)
Form field (numeric): enter value without unit.

input: Reported solubility (mole fraction), compound CN(C)CCC=C1c2ccccc2CCc2ccccc21.Cl : ____
output: 0.0571

###

test-conditions: in acetonitrile, 283.19 K
observation-type: solubility (mole fraction)

input: Which solubility (mole fraction) is listed for CN(C)CCC=C1c2ccccc2CCc2ccccc21.Cl ?
output: 0.00773

###

test-conditions: in isopropanol, 308.06 K
observation-type: solubility (mole fraction)

input: Which solubility (mole fraction) value belongs to CN(C)CCC=C1c2ccccc2CCc2ccccc21.Cl ?
output: 0.0239

###

test-conditions: in isopentanol, 288.19 K
observation-type: solubility (mole fraction)
// no unit string in output, number only

input: Which measured solubility (mole fraction) value corresponds to CN(C)CCC=C1c2ccccc2CCc2ccccc21.Cl ?
output: 0.0159

###

test-conditions: in acetone, 318.2 K
observation-type: solubility (mole fraction)
Just the number, please, no unit after it.

input: Suppose we examine the compound CN(C)CCC=C1c2ccccc2CCc2ccccc21.Cl ; what solubility (mole fraction) value has been reported?
output: 0.00503

###

test-conditions: in THF, 298.23 K
observation-type: solubility (mole fraction)
// print number alone

input: Given the entry CN(C)CCC=C1c2ccccc2CCc2ccccc21.Cl , report its measured solubility (mole fraction).
output: 0.00101

###

test-conditions: in n-propanol, 308.24 K
observation-type: solubility (mole fraction)
// return a plain number; no unit text

input: Value lookup for solubility (mole fraction); key = CN(C)CCC=C1c2ccccc2CCc2ccccc21.Cl
output: 0.0851

###

test-conditions: in n-butanol, 288.2 K
observation-type: solubility (mole fraction)
Lab note: jot down the number only; don't add units.

input: Would you mind telling me what solubility (mole fraction) value was observed for CN(C)CCC=C1c2ccccc2CCc2ccccc21.Cl ?
output: 0.0261

###

test-conditions: in DMF, 283.86 K
observation-type: solubility (mole fraction)
// no unit string in output, number only

input: Which measured solubility (mole fraction) value corresponds to CN(C)CCC=C1c2ccccc2CCc2ccccc21.Cl ?
output: 0.03

###

test-conditions: in THF, 323.16 K
observation-type: solubility (mole fraction)
Write no unit; give the number alone.

input: Bench note: what solubility (mole fraction) did CN(C)CCC=C1c2ccccc2CCc2ccccc21.Cl show?
output: 0.00196

###

test-conditions: in sec-butanol, 303.17 K
observation-type: solubility (mole fraction)
API doc: respond with a numeric literal and nothing else, no unit.

input: What does the data say about its solubility (mole fraction)? Entry: CN(C)CCC=C1c2ccccc2CCc2ccccc21.Cl
output: 0.0207

###

test-conditions: in acetonitrile, 318.13 K
observation-type: solubility (mole fraction)
Respond numerically, and do not add a unit to the figure.

input: Fill in the blank: the reported solubility (mole fraction) of CN(C)CCC=C1c2ccccc2CCc2ccccc21.Cl is ____.
output: 0.0212

###

test-conditions: in acetonitrile, 298.19 K
observation-type: solubility (mole fraction)
Reply with just the number.

input: What solubility (mole fraction) value was documented for this compound, CN(C)CCC=C1c2ccccc2CCc2ccccc21.Cl ?
output: 0.0118

###

test-conditions: in acetonitrile, 303.16 K
observation-type: solubility (mole fraction)

input: Consider the compound shown here: CN(C)CCC=C1c2ccccc2CCc2ccccc21.Cl What is its recorded solubility (mole fraction)?
output: 0.0136

###

test-conditions: in DMF, 288.15 K
observation-type: solubility (mole fraction)

input: // lookup solubility (mole fraction) for CN(C)CCC=C1c2ccccc2CCc2ccccc21.Cl
output: 0.032

###

test-conditions: in n-pentanol, 298.07 K
observation-type: solubility (mole fraction)

input: Item CN(C)CCC=C1c2ccccc2CCc2ccccc21.Cl has what recorded solubility (mole fraction)?
output: 0.0562

###

test-conditions: in 2-butanone, 283.23 K
observation-type: solubility (mole fraction)
Give only the figure.

input: I am curious: what solubility (mole fraction) value has been reported for CN(C)CCC=C1c2ccccc2CCc2ccccc21.Cl ?
output: 0.00254

###

test-conditions: in 2-butanone, 293.2 K
observation-type: solubility (mole fraction)
# respond with the number and nothing more

input: Returns the measured solubility (mole fraction) for the input compound. Input: CN(C)CCC=C1c2ccccc2CCc2ccccc21.Cl
output: 0.00304

###

test-conditions: in 2-butanone, 323.35 K
observation-type: solubility (mole fraction)
No unit in the answer, only the number.

input: solubility (mole fraction) for CN(C)CCC=C1c2ccccc2CCc2ccccc21.Cl ?
output: 0.00584

Data origin, for the record: BigSolDB 2.1
